Value source: patent US20260285872A1

# experimental.target: GSPT1 (Homo sapiens, UniProt P15170+Q96SW2)
# Sequence (P15170 whole entry): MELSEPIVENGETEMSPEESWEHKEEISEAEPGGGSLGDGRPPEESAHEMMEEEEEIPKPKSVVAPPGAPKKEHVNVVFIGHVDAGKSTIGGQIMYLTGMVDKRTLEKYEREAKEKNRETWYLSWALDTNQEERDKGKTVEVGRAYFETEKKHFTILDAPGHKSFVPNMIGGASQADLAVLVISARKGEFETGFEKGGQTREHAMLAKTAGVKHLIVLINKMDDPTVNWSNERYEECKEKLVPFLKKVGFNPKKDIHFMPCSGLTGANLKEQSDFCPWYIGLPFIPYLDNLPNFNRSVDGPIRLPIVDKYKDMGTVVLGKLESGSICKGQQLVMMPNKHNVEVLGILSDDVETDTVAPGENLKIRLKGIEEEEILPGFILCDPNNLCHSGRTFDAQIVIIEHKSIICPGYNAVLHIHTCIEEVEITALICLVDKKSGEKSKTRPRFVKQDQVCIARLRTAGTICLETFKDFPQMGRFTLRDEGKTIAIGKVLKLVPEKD
# Sequence (Q96SW2 whole entry): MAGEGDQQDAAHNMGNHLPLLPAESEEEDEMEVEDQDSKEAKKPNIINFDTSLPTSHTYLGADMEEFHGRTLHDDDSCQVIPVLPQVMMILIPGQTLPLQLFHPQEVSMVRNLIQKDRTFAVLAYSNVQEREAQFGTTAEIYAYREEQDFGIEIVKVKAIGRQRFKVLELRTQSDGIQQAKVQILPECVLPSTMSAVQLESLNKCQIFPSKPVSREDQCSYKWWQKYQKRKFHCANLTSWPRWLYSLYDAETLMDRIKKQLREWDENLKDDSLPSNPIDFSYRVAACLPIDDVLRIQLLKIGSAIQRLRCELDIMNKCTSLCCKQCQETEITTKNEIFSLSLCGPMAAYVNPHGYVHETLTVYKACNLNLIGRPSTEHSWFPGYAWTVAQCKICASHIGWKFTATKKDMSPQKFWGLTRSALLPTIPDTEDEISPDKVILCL
# Sequence (Q16531 whole entry partner): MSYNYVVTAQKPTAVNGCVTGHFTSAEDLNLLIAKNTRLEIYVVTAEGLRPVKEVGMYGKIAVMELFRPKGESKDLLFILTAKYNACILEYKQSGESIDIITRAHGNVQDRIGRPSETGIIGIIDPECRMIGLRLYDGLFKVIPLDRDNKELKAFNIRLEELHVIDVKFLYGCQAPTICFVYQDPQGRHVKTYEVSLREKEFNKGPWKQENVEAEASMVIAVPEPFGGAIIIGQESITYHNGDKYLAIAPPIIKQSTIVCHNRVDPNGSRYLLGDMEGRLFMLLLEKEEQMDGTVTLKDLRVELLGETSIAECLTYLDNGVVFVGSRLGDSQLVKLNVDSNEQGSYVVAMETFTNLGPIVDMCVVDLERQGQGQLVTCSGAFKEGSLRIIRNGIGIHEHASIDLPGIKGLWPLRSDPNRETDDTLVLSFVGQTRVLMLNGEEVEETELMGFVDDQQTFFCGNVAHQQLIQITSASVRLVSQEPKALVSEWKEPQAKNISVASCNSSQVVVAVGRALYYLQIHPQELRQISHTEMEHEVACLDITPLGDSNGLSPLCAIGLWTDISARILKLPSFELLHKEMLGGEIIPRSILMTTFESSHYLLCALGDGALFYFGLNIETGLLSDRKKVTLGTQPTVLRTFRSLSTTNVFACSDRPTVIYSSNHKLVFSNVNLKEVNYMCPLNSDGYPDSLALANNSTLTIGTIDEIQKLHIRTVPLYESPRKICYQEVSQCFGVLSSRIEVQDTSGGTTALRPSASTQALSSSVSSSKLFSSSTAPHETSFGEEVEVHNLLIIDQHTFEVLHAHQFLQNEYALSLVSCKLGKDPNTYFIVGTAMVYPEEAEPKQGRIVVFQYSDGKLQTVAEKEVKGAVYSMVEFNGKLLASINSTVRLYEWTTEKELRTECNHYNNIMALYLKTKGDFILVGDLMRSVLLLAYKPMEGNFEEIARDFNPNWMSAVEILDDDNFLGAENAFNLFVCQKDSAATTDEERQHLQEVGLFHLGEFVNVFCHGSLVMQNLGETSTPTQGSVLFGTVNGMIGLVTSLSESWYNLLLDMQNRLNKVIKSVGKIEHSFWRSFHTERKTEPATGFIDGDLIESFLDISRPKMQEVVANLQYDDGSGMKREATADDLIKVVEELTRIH
# Format: cell-based
# recorded.conditions: DC50, GSPT1_HiBIT_HEK293 cells, 16 hours, Nano-Glo HiBiT Lytic Detection; read-out: GSPT1 degradation classification
Below, each of the compounds is paired with its reported DC50 value.

In [3]: df
Out[3]:
                                   compound  reported_endpoint  recorded_result
0  O=C1CCC(c2nc3ccc(C(=O)N4Cc5cccc(C(F)(F)F)c5C4)cc3o2)C(=O)N1 (centres unmarked)               DC50   300 to 1000 nM
1  O=C1CCC(c2nc3ccc(C(=O)N4CC5(CCC(F)(F)C5)C4)cc3o2)C(=O)N1 (centres unmarked)               DC50        > 1000 nM
2  O=C1CCC(N2Cc3cc(C(=O)NC4CC5(C4)CC(c4ccc(F)c(F)c4)C5)ccc3C2=O)C(=O)N1 (centres unmarked)               DC50    100 to 300 nM

DC50 reading for Cc1cccc2c1CN(C(=O)c1ccc3nc(C4CCC(=O)NC4=O)oc3c1)C2 (centres unmarked) : 100 to 300 nM

For O=C1CCC(N2Cc3cc(C(=O)N4CC5(CC(c6ccc(F)cc6)C5)C4)ccc3C2=O)C(=O)N1 (centres unmarked) the compound record lists DC50 as 100 to 300 nM

Entry under test: O=C1CCC(c2nc3ccc(C(=O)N4CCc5ccc(F)cc54)cc3o2)C(=O)N1 (centres unmarked) . Its DC50 was 300 to 1000 nM

Consider O=C1CCC(N2Cc3cc(C(=O)NC4CC5(C4)CC(c4ccc(C(F)(F)F)cc4)C5)ccc3C2=O)C(=O)N1 (centres unmarked) . Its measured DC50 is 100 to 300 nM

What the record says about O=C1CCC(c2nc3ccc(C(=O)N4Cc5cc(F)cc(Cl)c5C4)cc3o2)C(=O)N1 (centres unmarked) : DC50 is 300 to 1000 nM
